Assay: refractive index (Na D-line) (dimensionless)
Conditions: 318.15 K; 101.33 kPa; Liquid; Standard Abbe refractometry
refractive index values by entry
Provide a numeric answer; units are not to be included.

CC[n+]1ccccc1.O=S(=O)([N-]S(=O)(=O)C(F)(F)F)C(F)(F)F [1-ethylpyridinium bis[(trifluoromethyl)sulfonyl]imide]: 1.4349
CC[n+]1ccccc1C.O=S(=O)([N-]S(=O)(=O)C(F)(F)F)C(F)(F)F: 1.44181
CC[n+]1cccc(C)c1.O=S(=O)([N-]S(=O)(=O)C(F)(F)F)C(F)(F)F: 1.43751

[in] Given the molecule CC[n+]1ccc(C)cc1.O=S(=O)([N-]S(=O)(=O)C(F)(F)F)C(F)(F)F , write its reported refractive index.
[out] 1.43794

* * *

mass density values by entry
Conditions: 293.15 K; 101.33 kPa; Liquid; Vibrating tube method
Only the number, expressed in kg/m3, is required.

CC[n+]1ccccc1C.O=S(=O)([N-]S(=O)(=O)C(F)(F)F)C(F)(F)F: 1510.22
CC[n+]1cccc(C)c1.O=S(=O)([N-]S(=O)(=O)C(F)(F)F)C(F)(F)F: 1493.4
CC[n+]1ccc(C)cc1.O=S(=O)([N-]S(=O)(=O)C(F)(F)F)C(F)(F)F: 1491.6

Pending compound:
[in] Given the compound CC[n+]1ccccc1.O=S(=O)([N-]S(=O)(=O)C(F)(F)F)C(F)(F)F [1-ethylpyridinium bis[(trifluoromethyl)sulfonyl]imide] , write its reported mass density.
[out] 1540.83

* * *

Test: refractive index (Na D-line) (dimensionless)
Details: 308.15 K; 101.33 kPa; Liquid; Standard Abbe refractometry
refractive index values by entry
Provide a numeric answer; units are not to be included.

Some compounds with known refractive index results, for comparison:
CC[n+]1ccccc1.O=S(=O)([N-]S(=O)(=O)C(F)(F)F)C(F)(F)F [1-ethylpyridinium bis[(trifluoromethyl)sulfonyl]imide]: 1.43788
CC[n+]1ccc(C)cc1.O=S(=O)([N-]S(=O)(=O)C(F)(F)F)C(F)(F)F: 1.44108
CC[n+]1cccc(C)c1.O=S(=O)([N-]S(=O)(=O)C(F)(F)F)C(F)(F)F: 1.44056

Pending compound:
[in] Given the compound CC[n+]1ccccc1C.O=S(=O)([N-]S(=O)(=O)C(F)(F)F)C(F)(F)F , write its reported refractive index.
[out] 1.44493

* * *

Details: 333.15 K; 101.33 kPa; Liquid; Sing-around technique in a fixed-path interferometer
speed of sound values by entry
Only the number, expressed in m/s, is required.

Some compounds with known speed of sound results, for comparison:
CC[n+]1ccccc1.O=S(=O)([N-]S(=O)(=O)C(F)(F)F)C(F)(F)F [1-ethylpyridinium bis[(trifluoromethyl)sulfonyl]imide]: 1193.9
CC[n+]1ccccc1C.O=S(=O)([N-]S(=O)(=O)C(F)(F)F)C(F)(F)F: 1223.4
CC[n+]1ccc(C)cc1.O=S(=O)([N-]S(=O)(=O)C(F)(F)F)C(F)(F)F: 1187

Pending compound:
[in] Given the compound CC[n+]1cccc(C)c1.O=S(=O)([N-]S(=O)(=O)C(F)(F)F)C(F)(F)F , write its reported speed of sound.
[out] 1184.6

* * *

Conditions: 338.15 K; 101.33 kPa; Liquid; Vibrating tube method
observable: mass density (kg/m3)
Only the number, expressed in kg/m3, is required.

CC[n+]1ccccc1C.O=S(=O)([N-]S(=O)(=O)C(F)(F)F)C(F)(F)F: 1467.11
CC[n+]1ccccc1.O=S(=O)([N-]S(=O)(=O)C(F)(F)F)C(F)(F)F [1-ethylpyridinium bis[(trifluoromethyl)sulfonyl]imide]: 1496.67
CC[n+]1ccc(C)cc1.O=S(=O)([N-]S(=O)(=O)C(F)(F)F)C(F)(F)F: 1447.96

[in] Given the molecule CC[n+]1cccc(C)c1.O=S(=O)([N-]S(=O)(=O)C(F)(F)F)C(F)(F)F , write its reported mass density.
[out] 1450.3

The reported measurements were obtained from the NIST ThermoML archive (doi:10.1016/j.jct.2015.02.020).
